Biological target: T1, Human latent myostatin (human, UniProt O14793 25-266; O14793 267-375)
T1 construct: also called human myostatin latent form
T1 sequence 1: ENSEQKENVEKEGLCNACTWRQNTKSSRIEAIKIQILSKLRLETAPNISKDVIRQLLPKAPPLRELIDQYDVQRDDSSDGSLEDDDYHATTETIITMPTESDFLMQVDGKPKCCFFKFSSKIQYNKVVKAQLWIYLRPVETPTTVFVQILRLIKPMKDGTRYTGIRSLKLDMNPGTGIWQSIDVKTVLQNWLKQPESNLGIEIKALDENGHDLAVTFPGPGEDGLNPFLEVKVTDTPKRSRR
T1 sequence 2: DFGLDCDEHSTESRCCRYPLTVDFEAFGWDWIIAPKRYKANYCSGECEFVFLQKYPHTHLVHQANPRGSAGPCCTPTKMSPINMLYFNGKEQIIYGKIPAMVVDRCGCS
Test: SPR (BIACORE T200) 37C, pH 7.4, antibody captured by ProA/G
quantity: Kd (nM)
Record the value in nM, omitting the unit from your answer.

Use these answered entries as a reference point.
MS_M103205H1047-SG1/M103202L889-SK1 (antibody, human IgG1, kappa, V domains shown, also called MS1032LO11-SG1) VH: QVTLKESGPVLVKPTETLTLTCTVSGIDLSHTDISWVRQAPGKGLEWVGIISYAGKKYYASWAKGRLTISKDTSKNQVVLTMTNMDPVDTATYYCARGVPAYSHGGDLWGQGTLVTVSS VL: DIVMTQSPATLSLSPGERATLSCTSSQSVYHANWLSWFQQKPGQPPKLLIYWASTLAYGVPSRFSGSGSGTDFTLTISSLQPEDAATYYCAGGYGGGRYAFGQGTKVEIKR: 0.419
MS_M103205H1057-SG1/M103202L889-SK1 (antibody, human IgG1, kappa, V domains shown, also called MS1032LO12-SG1) VH: QVTLKESGPVLVKPTETLTLTCTVSGIDLSHTDISWVRQAPGKGLEWVGIISYAGSKYKASWAKGRLTISKDTSKNQVVLTMTNMDPVDTATYYCARGVPAYSHGGDLWGQGTLVTVSS VL: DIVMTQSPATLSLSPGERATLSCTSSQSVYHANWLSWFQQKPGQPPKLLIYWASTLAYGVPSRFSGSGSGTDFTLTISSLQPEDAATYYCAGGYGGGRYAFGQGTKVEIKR: 0.407
MS_M103205H1046-SG1/M103202L889-SK1 (antibody, human IgG1, kappa, V domains shown, also called MS1032LO10-SG1) VH: QVTLKESGPVLVKPTETLTLTCTVSGIDLSHTDISWVRQAPGKGLEWVGIISYAGKTYYASWAKKRLTISKDTSKNQVVLTMTNMDPVDTATYYCARGVPAYSHGGDLWGQGTLVTVSS VL: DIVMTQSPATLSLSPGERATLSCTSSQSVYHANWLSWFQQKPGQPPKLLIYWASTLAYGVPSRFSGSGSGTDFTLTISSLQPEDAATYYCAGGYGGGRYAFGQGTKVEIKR: 0.351

Now for another entry.
Problem: # Kd lookup, item MS_M103205H1004-SG1/M103202L889-SK1 (antibody, human IgG1, kappa, V domains shown, also called MS1032LO07-SG1) VH: QVTLKESGPVLVKPTETLTLTCTVSGIDLSHDDISWVRQAPGKGLEWVGIISYAGSMYYASWAKGRLTISKDTSKNQVVLTMTNMDPVDTATYYCARGVPAYSHGGDKWGQGTLVTVSS VL: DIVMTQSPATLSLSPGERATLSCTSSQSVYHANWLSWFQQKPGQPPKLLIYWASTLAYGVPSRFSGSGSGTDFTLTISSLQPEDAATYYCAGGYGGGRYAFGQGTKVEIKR
Solution: 0.275
